As shown below, each of these binders has a reported IC50 value.
target: T1, human α4β7 integrin on cells (human, UniProt P13612 34-1032; P26010 20-798)
T1 construct: whole, on cells; also called α4β7 cell (Hu); RPMI8866 cells
experiment_summary: PBMC memory T cell adhesion
Bridge positions count the residues as written; N and C are the ends. Square brackets hold non-standard residues; d marks the D form. Phe(4-tBu) = CC(C)(C)c1ccc(C[C@H](N)C(=O)O)cc1; NMeR = CN[C@@H](CCCNC(=N)N)C(=O)O; β3hE = N[C@@H](CCC(=O)O)CC(=O)O; NMeK = CN[C@@H](CCCCN)C(=O)O; Pen = CC(C)(S)[C@H](N)C(=O)O

Some solved entries appear below for comparison.
[
  {
    "binder": "Ac-[Pen][NMeR]SDTL[Pen][Phe(4-tBu)][β3hE]-NH2 (disulfide 1-7; SMILES CC(=O)N[C@@H]1C(=O)N(C)[C@@H](CCCNC(=N)N)C(=O)N[C@@H](CO)C(=O)N[C@@H](CC(=O)O)C(=O)N[C@@H]([C@@H](C)O)C(=O)N[C@@H](CC(C)C)C(=O)N[C@H](C(=O)N[C@@H](Cc2ccc(C(C)(C)C)cc2)C(=O)N[C@@H](CCC(=O)O)CC(N)=O)C(C)(C)SSC1(C)C) [SEQ ID NO: 165]",
    "IC50": "> 100 nM"
  },
  {
    "binder": "Ac-[Pen][NMeR]SDTL[Pen][Phe(4-tBu)]E[NMeK]-NH2 (disulfide 1-7; not fully specified (residue 10); printed as (Ac Pen N-Me-R S D T L Pen F(4tBu) E N-Me-K NH2)2 DIG, disulfide Pen-Pen; also: homodimer, two subunits joined by DIG linker) [SEQ ID NO: 133]",
    "IC50": "≤ 10 nM"
  },
  {
    "binder": "Ac-[Pen][NMeR]SDTL[Pen][Phe(4-tBu)][β3hE][dK]-NH2 (disulfide 1-7; not fully specified (residue 10); printed as (Ac Pen N-Me-R S D T L Pen F(4tBu) b-H-E k NH2)2 DIG, disulfide Pen-Pen; also: homodimer, two subunits joined by DIG linker, the second listing is the acetate salt) [SEQ ID NO: 132]",
    "IC50": "≤ 10 nM"
  }
]

Here is another binder to look at.
Recorded result, Ac-[Pen][NMeR]SDTL[Pen][Phe(4-tBu)][β3hE]-OH (disulfide 1-7; SMILES CC(=O)N[C@@H]1C(=O)N(C)[C@@H](CCCNC(=N)N)C(=O)N[C@@H](CO)C(=O)N[C@@H](CC(=O)O)C(=O)N[C@@H]([C@@H](C)O)C(=O)N[C@@H](CC(C)C)C(=O)N[C@H](C(=O)N[C@@H](Cc2ccc(C(C)(C)C)cc2)C(=O)N[C@@H](CCC(=O)O)CC(=O)O)C(C)(C)SSC1(C)C) [SEQ ID NO: 152] , IC50: > 25 nM
